B1: SNAP91 (parent)
chain: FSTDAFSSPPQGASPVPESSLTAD

# Variants of: B1
# procedureSummary: protein stability index of a GFP-peptide fusion (GPS, HEK-293T) (PSI 1-6); higher = more stable;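 also: lentivirally expressed fusions sorted by FACS into six bins by GFP to DsRed ratio, PSI derived from sequencing read proportions per bin multiplied by bin number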
# experimentalParameters: c terminus: a fixed tail appended
attributeMeasured: protein stability index
Write no unit; give the number alone.

// lookup protein stability index for FSTDAFSSPPQGASPLPESSLTAD [V16L]
2.83

Which protein stability index value belongs to FSTDAFSSPPQGASQVPESSLTAD [P15Q] ?
3.17

May I ask what protein stability index has been recorded for FSTDAFSSPKQGASPVPESSLTAD [P10K] ?
3.16

Item FSTDAFSSPPQGASPVPESSLQAD [T22Q] has what recorded protein stability index?
3.36

Bench note: what protein stability index did FSTDAFSSPPQGASGVPESSLTAD [P15G] show?
2.83
